inhibition at 10 µM reference
System: NCI-H226
protocol: Antiproliferative activity against human NCI-H226 cells assessed as inhibition of cell growth at 10 uM incubated for 48 hrs by MTT assay relative to control
Type: functional
protocol_conditions: NCI-H226, 48 h
property: inhibition at 10 µM (%)

COc1cc(NC(=O)Nc2cc(Nc3cc(C)cc(F)c3)ncn2)cc(OC)c1 :: 35.3
COc1cc(NC(=O)Nc2cc(Nc3cc(C(F)(F)F)ccc3OC)ncn2)cc(OC)c1 :: 60
COc1cc(Nc2cc(NC(=O)Nc3c(Cl)cccc3Cl)ncn2)cc(C(F)(F)F)c1 :: 33.1
COc1cc(NC(=O)Nc2cc(Nc3cc(OC)cc(OC)c3)ncn2)cc(OC)c1 :: 38.3
Cc1ccc(Nc2cc(NC(=O)Nc3c(Cl)cccc3Cl)ncn2)cc1C :: 41.3

Cited source for all entries: ChEMBL document CHEMBL4414679
